Items are presented alongside their recorded inhibition at 0.01 µM.
molecular target: human sodium-glucose cotransporter 2 (SGLT2) (Homo sapiens, UniProt P31639); construct: expressed in transfected cells; host or cells: NIH3T3 (mouse fibroblast) cells expressing hSGLT2; assay: In vitro SGLT2 inhibition, methyl-α-D-[U-14C]glucopyranoside uptake in NIH3T3-hSGLT2 cells; type: cell-based; conditions: SGLT2, 10 nM; read-out: % Inhibition rate ± SD 10 nM
Sequence (P31639 whole entry): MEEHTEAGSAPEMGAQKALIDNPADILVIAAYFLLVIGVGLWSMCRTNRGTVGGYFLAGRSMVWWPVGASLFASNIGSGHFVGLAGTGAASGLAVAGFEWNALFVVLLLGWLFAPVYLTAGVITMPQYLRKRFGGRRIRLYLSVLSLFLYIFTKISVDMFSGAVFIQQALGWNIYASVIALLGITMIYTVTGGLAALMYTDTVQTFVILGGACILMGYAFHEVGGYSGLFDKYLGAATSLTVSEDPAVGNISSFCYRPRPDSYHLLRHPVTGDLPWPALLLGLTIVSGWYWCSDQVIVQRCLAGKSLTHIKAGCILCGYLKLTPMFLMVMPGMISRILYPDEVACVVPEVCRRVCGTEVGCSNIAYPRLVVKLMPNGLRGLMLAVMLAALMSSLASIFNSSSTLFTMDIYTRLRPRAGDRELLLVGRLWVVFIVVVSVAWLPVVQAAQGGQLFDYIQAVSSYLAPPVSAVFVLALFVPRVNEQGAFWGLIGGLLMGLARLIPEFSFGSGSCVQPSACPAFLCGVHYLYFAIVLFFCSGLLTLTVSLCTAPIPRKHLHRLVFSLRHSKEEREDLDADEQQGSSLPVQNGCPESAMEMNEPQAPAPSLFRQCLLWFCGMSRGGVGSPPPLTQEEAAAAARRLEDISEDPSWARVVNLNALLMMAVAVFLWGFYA

- molecule smiles: "CCc1ccc(Cc2cc3c(cc2Cl)CO[C@]32O[C@H](C)[C@@H](O)[C@H](O)[C@H]2O)cc1"
  inhibition at 0.01 µM / %: 25
- molecule smiles: "C[C@H]1O[C@]2(OCc3ccc(Cc4cc5ccccc5o4)cc32)[C@H](O)[C@@H](O)[C@@H]1O"
  inhibition at 0.01 µM / %: 27.5
- molecule smiles: "C[C@H]1O[C@]2(OCc3cc(F)c(Cc4ccc(-c5ccccn5)s4)cc32)[C@H](O)[C@@H](O)[C@@H]1O"
  inhibition at 0.01 µM / %: 16
- molecule smiles: "C[C@H]1O[C@]2(OCc3ccc(Cc4ccc5ccccc5c4)cc32)[C@H](O)[C@@H](O)[C@@H]1O"
  inhibition at 0.01 µM / %: 25.8
- molecule smiles: "CCCOCCc1ccc(Cc2cc3c(cc2Cl)CO[C@]32O[C@H](C)[C@@H](O)[C@H](O)[C@H]2O)s1"
  inhibition at 0.01 µM / %: 89.4
- molecule smiles: "CCc1ccc(C(=O)c2cc3c(cc2Cl)CO[C@]32O[C@H](C)[C@@H](O)[C@H](O)[C@H]2O)s1"
  inhibition at 0.01 µM / %: 20.9
- molecule smiles: "C[C@H]1O[C@]2(OCc3cc(Cl)c(C(=O)c4ccc(C(F)(F)F)c(F)c4)cc32)[C@H](O)[C@@H](O)[C@@H]1O"
  inhibition at 0.01 µM / %: 34.9

Data origin, for the record: patent US10550143B2
